B1: HDV Ribozyme (parent)
chain: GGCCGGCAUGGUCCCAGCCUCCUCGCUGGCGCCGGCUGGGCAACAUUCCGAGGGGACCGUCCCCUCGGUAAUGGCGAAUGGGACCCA

variants of: B1; assay: self-cleavage, relative activity (ratio to wild type); higher = more cleavage; co-transcriptional
// n strictly below 0.4 in self-cleavage; y otherwise

Use the examples below as a reference point.
>>> label_class("C3A C36G")
"n"
>>> label_class("U23C C36U")
"n"
>>> label_class("G53A G68C")
"y"
>>> label_class("G38A G80C")
"n"
>>> label_class("G35U A42G")
"n"
>>> label_class("C13G C26A")
"n"
>>> label_class("A42U C63A")
"n"
>>> label_class("C19G C84U")
"n"
>>> label_class("G40U A51U")
"y"
>>> label_class("G6A C33U")
"n"

Exercise: # check: self-cleavage of C49U C62U is greater than or equal to 0.4
Solution: y

Exercise: Determine whether measured self-cleavage meets or exceeds 0.4 for G38U G50U
Solution: n

Exercise: Could you tell me if the measured self-cleavage of G34U G38C reaches 0.4 or more?
Solution: n

Exercise: Hello, I need to know if C63U G76U has measured self-cleavage not below 0.4. Thanks!
Solution: y

Exercise: In plain terms: is recorded self-cleavage at least 0.4 for G55C G73U ?
Solution: n

Exercise: Is it the case that G10U C33A has self-cleavage reaching or exceeding 0.4?
Solution: n
